experiment.notes: Cytotoxicity evaluation (Cell Titer 96 AQueous One Solution Cell Proliferation Assay)
Assay type: cell-based
test.settings: human; GS4.1 cells, cellular viability
measurement.name: CC50

{"molecule": "COc1ccc2c(O[C@H]3C[C@H]4C(=O)N(C)CCCC/C=C\\[C@@H]5C[C@@]5(C(=O)NS(=O)(=O)C5(C)CC5)NC(=O)N4C3)cc(-n3ccc(C(C)C)n3)nc2c1Cl [Compound 91d]", "measurement.name": "CC50", "result": "> 75 µM"}
{"molecule": "COc1ccc2c(O[C@H]3C[C@H]4C(=O)N(C)CCCC/C=C\\[C@@H]5C[C@@]5(C(=O)NS(=O)(=O)C5(C)CC5)NC(=O)N4C3)cc(-n3ccc(C(F)(F)F)n3)nc2c1C [Compound 91c]", "measurement.name": "CC50", "result": "> 75 µM"}
{"molecule": "COc1ccc2c(O[C@H]3C[C@H]4C(=O)N(C)CCCC/C=C\\[C@@H]5C[C@@]5(C(=O)NS(=O)(=O)C5CC5)NC(=O)N4C3)cc(-n3ccc(C(C)C)n3)nc2c1C [Compound 91f]", "measurement.name": "CC50", "result": "> 75 µM"}
{"molecule": "COc1cc(C)c2nc(-c3nc(C(C)C)cs3)cc(O[C@H]3C[C@H]4C(=O)N(C)CCCC/C=C\\[C@@H]5C[C@@]5(C(=O)NS(=O)(=O)C5(C)CC5)NC(=O)N4C3)c2c1 [Compound 56f]", "measurement.name": "CC50", "result": "> 75 µM"}
{"molecule": "COc1ccc2c(O[C@H]3C[C@H]4C(=O)N(C)CCCC/C=C\\[C@@H]5C[C@@]5(C(=O)NS(=O)(=O)C5CC5)NC(=O)N4C3)cc(-c3nc(C4CCC4)cs3)nc2c1Cl [AC2]", "measurement.name": "CC50", "result": "10 to 75 µM"}
